experiment.summary: basal RPMI8226 mitochondrial membrane potential changes, profiling panel, cell-based, JC-1 fluorescence, 24 h, 100 nL compound (AID 1169); further: test concentration not given here
run.conditions: RPMI8226 myeloma, JC-1 mitochondrial potential fluorescence, higher = more signal
Parameter z-score: see the listing below.

compound	z-score
O=C1O[C@@H](c2ccccc2)[C@@H](c2ccccc2)N2[C@@H](c3ccc(OCCO)cc3)[C@]3(C(=O)Nc4ccccc43)[C@@H](C(=O)N3CCN(c4ncccn4)CC3)[C@H]12	-0.842
C[C@H]1Cc2c(-c3ccccc3)nc3c(c2CO1)CN(CCOc1ccccc1)CC3	-0.324
O=C(NN=C1C[C@@H](O)[C@@H](O)[C@@H]2[C@@H]3C(=O)N(c4ccc(F)cc4F)C(=O)[C@@H]3CC[C@@H]12)OCc1ccccc1	-0.353
COC(=O)CC=C[C@H](C)[C@@H](OCc1ccccc1Br)C(C)C	0.00667
CCOC(=O)[C@H](CC(C)C)NC(=O)CCC1CC(OC(=O)NCc2cccc3ccccc23)CC2(CCCC(COC(=O)NCCc3ccccc3OC)O2)O1 (stereo partly drawn)	-0.0975
CC(C)=NOCc1ccc(-c2cc(-c3ccccc3)no2)cc1	0.825
C[C@H](c1ccccc1)N1C(=O)[C@H]2[C@@H]3C(=CC[C@H]2C1=O)C(=O)[C@H]1O[C@H]1[C@H]3O	-1.03
CCOC(=O)[C@H](Cc1ccccc1)NC(=O)CCC1CC(OC(=O)NCc2ccc3c(c2)OCO3)CC2(CCCC(COC(=O)NCC3CCCCC3)O2)O1 (stereo partly drawn)	-0.00903

###

assayed.system: Homeobox protein Hox-A13 (Mus musculus) (UniProt Q62424)
Sequence (Q62424 whole entry, looked up): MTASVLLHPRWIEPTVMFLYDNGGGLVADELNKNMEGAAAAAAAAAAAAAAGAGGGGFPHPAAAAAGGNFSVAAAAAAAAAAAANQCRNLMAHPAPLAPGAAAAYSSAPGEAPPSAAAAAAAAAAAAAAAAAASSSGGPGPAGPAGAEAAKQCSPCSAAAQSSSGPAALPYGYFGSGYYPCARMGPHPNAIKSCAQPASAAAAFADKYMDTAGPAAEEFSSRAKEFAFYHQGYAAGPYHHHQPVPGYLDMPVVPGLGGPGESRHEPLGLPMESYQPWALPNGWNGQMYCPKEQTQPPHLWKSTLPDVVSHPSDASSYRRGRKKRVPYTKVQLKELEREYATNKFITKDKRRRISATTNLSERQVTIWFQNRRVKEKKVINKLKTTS
experiment.summary: inhibitors of HoxA13-DNA binding, primary screen, biochemical, fluorescence polarization, labeled oligonucleotide (AID 1185)
run.conditions: 15 min, higher = more signal, called active from +8 up or from −8 down
Parameter z-score: see the listing below.
measured.property: z-score

molecule	measured.property	meas.value
O=C1C[C@]2(c3ccc([N+](=O)[O-])cc3)C(=O)N(CCN3CCOCC3)c3cc(CO)ccc3[C@H]2N1CC12CC3CC(CC(C3)C1)C2	z-score	-2.32
COCCOC(=O)N1C(=O)[C@@]2(c3ccccc31)[C@H](C(N)=O)[C@H]1C(=O)O[C@H](c3ccccc3)[C@H](c3ccccc3)N1[C@@H]2c1ccccc1OCCO	z-score	-4.4
C=CC[C@@H]1C=C[C@H](ON=Cc2ccc(C(=O)N3[C@H](c4ccc(C)cc4)[C@@H](C)CC[C@H]3C(=O)OC)cc2)[C@@H](CO)O1	z-score	-6.28
C[C@@H]1CC[C@H]2C(=O)O[C@H](COc3ccc(C(C)(C)C)cc3)CN2[C@H]1c1ccc(Br)cc1	z-score	1.23
CC(C)(C)OC(=O)CC[C@]1(C(N)=O)COC(c2ccc(OCCCO)cc2)=N1	z-score	-1.89
CO[C@H]1COC(=O)CC=C[C@H](C)[C@@H](NS(=O)(=O)c2ccc(C)cc2)COC(=O)CC=C[C@@H]1C	z-score	1.31
COC(=O)[C@H](C)NC(=O)CCC1CC(OC(=O)NCc2cccc3ccccc23)CC2(CCCC(COC(=O)NCCc3ccc(Cl)cc3)O2)O1 (some centres undefined)	z-score	-1.77
O=C1[C@H]2[C@H]3[C@H](O)[C@H](O)CC(=NOCc4ccccc4)[C@H]3CC[C@H]2C(=O)N1c1ccc(F)cc1F	z-score	1.02
COC(=O)[C@H](C)NC(=O)CCC1CC(OC(=O)NCc2cccc3ccccc23)CC2(CCCC(COC(=O)NCC3CCCCC3)O2)O1 (some centres undefined)	z-score	-2.34
COc1ccc(O[C@H]2C=C[C@@H](c3ccccc3)O[C@@H]2COC(=O)CCC(C)=NOC[C@@H](C)[C@H](OCc2ccccc2)C(C)C)cc1	z-score	-0.43
COCCNC(=O)OCC1CCCC2(CC(OC(=O)NCCc3ccc(F)cc3)CC(CCC(=O)N[C@@H](C)C(=O)OC)O2)O1 (some centres undefined)	z-score	-3.44
Cn1cccc1C(O)C1C=CC2C(=O)NC(=O)C2N1Nc1ccccn1 (centres undefined)	z-score	-5.35
C#CCCCON=C1C[C@@H](O)[C@@H](O)[C@@H]2[C@@H]3C(=O)N(c4cccc(Oc5ccccc5)c4)C(=O)[C@@H]3CC[C@@H]12	z-score	-5.65
COCCOC(=O)N1C(=O)[C@@]2(c3cc(C#CCNC(N)=O)ccc31)[C@H](c1ccc(O)cc1)N1[C@H](c3ccccc3)[C@H](c3ccccc3)OC(=O)[C@H]1[C@@H]2C(=O)N1CCCCCCC1	z-score	-0.578

Ref: PubChem BioAssay
